From: ChEMBL document CHEMBL2390852

# Experimental Protocol: Cytotoxicity against dog MDCK cells after 48 hrs by MTT assay
# Format: cell-based, Canis lupus familiaris
Item-by-item account of CC50 at 48 h
# value in µM; strip the unit string

[
  {
    "Compound": "CCCCCCCCC(=O)N(CC(C)/C(=N\\c1ccccc1)Nc1ccccc1)c1ccccc1.Cl (racemic)",
    "Endpoint Unit": "µM",
    "Quantitative Result": 247
  },
  {
    "Compound": "CC(=O)N(CC(C)/C(=N\\c1ccccc1)Nc1ccccc1)c1ccccc1 (racemic)",
    "Endpoint Unit": "µM",
    "Quantitative Result": 153
  }
]

# input Please report the recorded CC50 at 48 h for CCCCCCCCCCC(=O)N(CC(C)/C(=N\c1ccccc1)Nc1ccccc1)c1ccccc1.Cl (racemic) .
# output 936

# input Proceed to CCCCCCCCCCCCC(=O)N(CC(C)/C(=N\c1ccccc1)Nc1ccccc1)c1ccccc1.Cl (racemic)
# output 890

====

# Experimental Protocol: Cytotoxicity against dog MDCK cells after 48 hrs by MTT assay
# Assay type: cell-based, Canis lupus familiaris
Measurement Type: CC50 at 48 h
Returns: string containing the numeric result and its unit.

[
  {
    "Compound": "CCCC(=O)N(CC(C)/C(=N\\c1ccccc1)Nc1ccccc1)c1ccccc1 (racemic)",
    "Measurement Type": "CC50 at 48 h",
    "Result": "216 µM"
  },
  {
    "Compound": "CC(CNc1ccccc1)/C(=N\\c1ccccc1)Nc1ccccc1 (racemic)",
    "Measurement Type": "CC50 at 48 h",
    "Result": "85 µM"
  },
  {
    "Compound": "CCCCCCCCCCCCCCCCCC(=O)N(CC(C)/C(=N\\c1ccccc1)Nc1ccccc1)c1ccccc1 (racemic)",
    "Measurement Type": "CC50 at 48 h",
    "Result": "1240 µM"
  }
]

# input Please report the recorded CC50 at 48 h for CC(CN(C(=O)c1ccccc1)c1ccccc1)/C(=N\c1ccccc1)Nc1ccccc1 (racemic) .
# output 286 µM

# input Proceed to CC(N)C12CC3CC(CC(C3)C1)C2 (stereo not given)
# output 1400 µM

====

Item-by-item account of LD50 at 120 h
# Experimental Protocol: Acute toxicity in sc dosed Balb/c mouse after 5 days
# Format: organism-based
# Settings: in vivo
# value in mg/kg; strip the unit string

Illustrative cases are given below, each with its answer.
[
  {
    "Compound": "CCCCCCCCC(=O)N(CC(C)/C(=N\\c1ccccc1)Nc1ccccc1)c1ccccc1.Cl (racemic)",
    "Endpoint Unit": "mg/kg",
    "Quantitative Result": 3000
  },
  {
    "Compound": "CCCCCCCCCCC(=O)N(CC(C)/C(=N\\c1ccccc1)Nc1ccccc1)c1ccccc1.Cl (racemic)",
    "Endpoint Unit": "mg/kg",
    "Quantitative Result": 3500
  },
  {
    "Compound": "CCCCCCCCCCCCC(=O)N(CC(C)/C(=N\\c1ccccc1)Nc1ccccc1)c1ccccc1.Cl (racemic)",
    "Endpoint Unit": "mg/kg",
    "Quantitative Result": 4000
  },
  {
    "Compound": "CC(N)C12CC3CC(CC(C3)C1)C2 (stereo not given)",
    "Endpoint Unit": "mg/kg",
    "Quantitative Result": 175
  }
]

# input Please report the recorded LD50 at 120 h for N=C(N)CCNC(=O)[C@@H]1CC[C@H](N)C1 .
# output 10
